Below is a list of entries, each paired with its recorded pIC50 value.
System tested: human TrkA (Homo sapiens (Human))
Protocol description: Human TrkA inhibition assay (Test Example 2)
Assay type: biochemical
Condition details: human TrkA 1 nmol/L, ATP 500 μmol/L, 120 min at 37° C.; read-out: IC50 values (TrkA phosphorylation inhibition)
pIC50 (log units): -log10 of the concentration in mol/L.

Q) Could you share which pIC50 value was measured for COCCN1C[C@@H](NC(=O)Nc2c(C)c(-c3cnn(C)c3)nn2-c2ccccc2)[C@H](c2cnc(F)c(F)c2)O1 ?
A) 8.52

Q) Could you share which pIC50 value was measured for COCCN1C[C@@H](NC(=O)Nc2c(C)c(-c3ccc(N4CCC(O)CC4)nc3)nn2-c2ccccc2)[C@H](c2ccnc(F)c2)O1 (racemic) ?
A) 8.43

Q) Could you share which pIC50 value was measured for COCCN1C[C@@H](NC(=O)Nc2c(C)c(N3CCN(C)C(=O)C3)nn2-c2ccccc2)[C@H](c2ccc(F)c(F)c2)O1 ?
A) 9.01

Q) Could you share which pIC50 value was measured for COCC[C@@H]1O[C@@H](NC(=O)Nc2c(C)c(-c3cnn(C)c3)nn2-c2ccccc2)[C@H](c2ccccc2)O1 ?
A) 8.21

Q) Could you share which pIC50 value was measured for COCCN1C[C@@H](NC(=O)Nc2c(C)c(-c3cnc4c(c3)OCC(=O)N4)nn2-c2ccccc2)[C@H](c2ccnc(F)c2)O1 (racemic) ?
A) 8.70

Q) Could you share which pIC50 value was measured for CNC(=O)c1ncc(-c2nn(-c3ccccc3)c(NC(=O)N[C@@H]3CN(CCOC)O[C@H]3c3ccc(F)c(F)c3)c2C)cc1NC ?
A) 9.12

###

System tested: human TrkA (Homo sapiens (Human))
Protocol description: Human TrkA inhibition assay (Test Example 2)
Type: biochemical
Condition details: Table 155, human TrkA inhibition; read-out: IC50
pIC50: −log10 of the molar value.
Observed property: pIC50

Some compounds with recorded pIC50:
1) COCCN1C[C@@H](NC(=O)Nc2c(C)c(-c3cnc(N4C[C@H]5COC[C@@H](C4)N5)nc3)nn2-c2ccccc2)[C@H](c2ccnc(F)c2)O1 (racemic) :: > 7.00
2) COCCN1C[C@@H](NC(=O)Nc2c(C)c(-c3ccc4nccn4c3)nn2-c2ccccc2)[C@H](c2ccc(F)c(F)c2)O1 :: > 7.00
3) COCCN1C[C@@H](NC(=O)Nc2c(C)c(-c3cnc4c(c3)ncn4C)nn2-c2ccccc2)[C@H](c2cc(F)nc(F)c2)O1 (racemic) :: > 7.00

Q) Could you share which pIC50 value was measured for COCC[C@@H]1C[C@@H](NC(=O)Nc2c(C)c(-c3cnc4c(c3)c(=O)n(C)n4C)nn2-c2ccccc2)[C@H](c2ccnc(F)c2)O1 ?
A) > 7.00

Q) Could you share which pIC50 value was measured for COCCN1C[C@@H](NC(=O)Nc2c(C)c(-c3cnc(N4CCC5(COC5)C4)nc3)nn2-c2ccccc2)[C@H](c2ccnc(F)c2)O1 (racemic) ?
A) > 7.00

Q) Could you share which pIC50 value was measured for COCCN1C[C@@H](NC(=O)Nc2c(C)c(N3CCN(C)C(=O)C3)nn2-c2ccccc2)[C@H](c2ccc(F)cc2)O1 ?
A) > 7.00

###

System tested: human TrkA (Homo sapiens (Human), UniProt P04629)
Sequence (P04629 440-796): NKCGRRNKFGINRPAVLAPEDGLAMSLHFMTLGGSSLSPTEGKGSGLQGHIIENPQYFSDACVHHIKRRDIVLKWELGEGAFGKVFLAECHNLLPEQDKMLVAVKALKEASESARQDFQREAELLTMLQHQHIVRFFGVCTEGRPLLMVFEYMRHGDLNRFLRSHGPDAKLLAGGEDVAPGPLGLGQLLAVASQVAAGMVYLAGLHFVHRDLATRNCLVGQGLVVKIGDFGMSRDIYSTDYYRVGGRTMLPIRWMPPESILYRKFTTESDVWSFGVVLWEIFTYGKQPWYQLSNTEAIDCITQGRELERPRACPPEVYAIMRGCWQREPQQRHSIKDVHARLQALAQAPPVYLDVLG
Protocol description: Human TrkA inhibition assay (Test Example 2)
Format: biochemical
Condition details: Table 155, human TrkA inhibition; read-out: IC50
pIC50: −log10 of the molar value.
Below is a list of entries, each paired with its recorded pIC50 value.

1. COCC[C@@H]1C[C@@H](NC(=O)Nc2c(C)c(-c3cnn(C)c3)nn2-c2ccccn2)[C@H](c2ccc(F)c(F)c2)O1 (racemic) [Compound I-448] :: 6.00 to 7.00

Q) Could you share which pIC50 value was measured for COCCN1C[C@@H](NC(=O)Nc2c(C)c(-c3cnc(OC)c(C4(O)CC4)c3)nn2-c2ccccc2)[C@H](c2ccnc(F)c2)O1 (racemic) [Compound I-355] ?
A) > 7.00

Q) Could you share which pIC50 value was measured for COCCN1C[C@@H](NC(=O)Nc2c(C)c(-c3cnc(N4C[C@H]5CC[C@@H](C4)O5)nc3)nn2-c2ccccc2)[C@H](c2ccnc(F)c2)O1 (racemic) [Compound I-486] ?
A) > 7.00

Q) Could you share which pIC50 value was measured for COCCN1C[C@@H](NC(=O)Nc2c(C)c(-c3cnc(C4(O)COC4)nc3)nn2-c2ccccc2)[C@H](c2ccnc(F)c2)O1 (racemic) [Compound I-360] ?
A) > 7.00

Q) Could you share which pIC50 value was measured for COCCN1C[C@@H](NC(=O)Nc2c(C)c(OCc3cc(OC)ccn3)nn2-c2ccccc2)[C@H](c2ccnc(F)c2)O1 (racemic) [Compound I-501] ?
A) > 7.00

Q) Could you share which pIC50 value was measured for COCCN1C[C@@H](NC(=O)Nc2c(C)c(-c3cnc(N4CCN(C(=O)OCc5ccccc5)CC4)nc3)nn2-c2ccccc2)[C@H](c2ccnc(F)c2)O1 (racemic) [Compound I-371] ?
A) > 7.00

Q) Could you share which pIC50 value was measured for COCCN1C[C@@H](NC(=O)Nc2c(C)c(OCc3ccon3)nn2-c2ccccc2)[C@H](c2ccnc(F)c2)O1 (racemic) [Compound I-457] ?
A) > 7.00

Q) Could you share which pIC50 value was measured for COCCN1C[C@@H](NC(=O)Nc2c(C)c(-c3cnc(OC)cn3)nn2-c2ccccc2)[C@H](c2ccnc(F)c2)O1 (racemic) [Compound I-352] ?
A) > 7.00

Q) Could you share which pIC50 value was measured for COCCN1C[C@@H](NC(=O)Nc2c(C)c(-c3cnc(N4C[C@H]5C[C@@H](C4)O5)nc3)nn2-c2ccccc2)[C@H](c2ccnc(F)c2)O1 (racemic) [Compound I-487] ?
A) > 7.00

Q) Could you share which pIC50 value was measured for COCCN1C[C@@H](NC(=O)Nc2c(C)c(Oc3ccnc(C(F)(F)F)c3)nn2-c2ccccc2)[C@H](c2ccnc(F)c2)O1 (racemic) [Compound I-441] ?
A) 6.00 to 7.00

Q) Could you share which pIC50 value was measured for COCCN1C[C@@H](NC(=O)Nc2c(C)c(-c3cnc4c(c3)nc(N3CCN(C)CC3)n4C)nn2-c2ccccc2)[C@H](c2ccnc(F)c2)O1 (racemic) [Compound I-399] ?
A) > 7.00
